Recorded values, source PubChem BioAssay.

For each entry below, report its growth inhibition value.
- Protocol summary: Restrictive medium S. cerevisiae growth inhibition, OD615, pilot screen of yeast lifespan reduction project, restrictive growth control (AID 706);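 also: modified DeaD lifespan yeast strain shifted to restrictive glucose medium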
- Experimental setup: OD615, 48 h, at 10 µM, stronger effect = higher value
The source made the active and inactive calls.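 The calls were made as follows: active = growth inhibition above a set limit, 3 SD over mean compound inhibition, in both replicates (cut at about 43% in these data); inconclusive = above the limit in only one replicate; inactive = at or below the limit in both replicates.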

input: Read the entry Cn1c(C(=O)N2CCN(c3ccccc3F)CC2)cc2c(=O)n(C)c3ccccc3c21 and write its reported growth inhibition.
output: -4.68% (inactive)

input: Read the entry O=c1oc2c3c4c(cc2c2c1CCC2)OCCN4CCC3 and write its reported growth inhibition.
output: -0.795% (inactive)

input: Read the entry C=C(C)Cn1c(COc2ccccc2)nnc1SCC(=O)O and write its reported growth inhibition.
output: -7.02% (inactive)

---

- Protocol summary: RAM signaling pathway blockade in yeast – S. cerevisiae, Pdr1DBD-CYC8 efflux-inhibited sensitized strain, primary screen (AID 1298);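 also: 0% = DMSO untreated cells without growth and 100% = 10 µM 1-NA-PP1 full growth; higher means more yeast growth rescued from 5-FOA killing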
- Experimental setup: S. cerevisiae cbk1-as DSE1-URA3 strain, 5-FOA growth OD615, 2 d; at 50 µM; stronger effect = higher value
Assay metric: RAM network inhibition (%)
Express it in %; write the number only.

input: Read the entry CCc1ccccc1NC(=O)c1cc2sccc2n1C and write its reported RAM network inhibition.
output: 4.98

input: Read the entry Cc1cc(NC(=O)Nc2cccc3ccccc23)no1 and write its reported RAM network inhibition.
output: 5.09

input: Read the entry Cc1csc2nc(CNS(=O)(=O)c3ccc(-c4ccccc4)cc3)cn12 and write its reported RAM network inhibition.
output: 4.87

---

For each entry below, report its RAM network inhibition value.
- Protocol summary: RAM signaling pathway blockade in yeast – S. cerevisiae, Pdr1DBD-CYC8 efflux-inhibited sensitized strain, primary screen (AID 1298);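 also: 0% = DMSO untreated cells without growth and 100% = 10 µM 1-NA-PP1 full growth; higher means more yeast growth rescued from 5-FOA killing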
- Experimental setup: S. cerevisiae cbk1-as DSE1-URA3 strain, 5-FOA growth OD615, 2 d; at 50 µM; stronger effect = higher value
Express it in %; write the number only.

input: Read the entry Cn1c(=O)c2c(nc(OCc3ccccc3)n2C)n(C)c1=O and write its reported RAM network inhibition.
output: 0.26

input: Read the entry COC(=O)COC(=O)CC(CC(N)=O)c1ccccc1 (centres undefined) and write its reported RAM network inhibition.
output: 3.07

input: Read the entry Cn1c(NC(=O)CCC2CCCCC2)cc(=O)n(C)c1=O and write its reported RAM network inhibition.
output: -1.2

input: Read the entry Cc1noc(/C=C/N(C)C)c1S(=O)(=O)N1CCN(c2ccccc2)CC1 and write its reported RAM network inhibition.
output: 7.31

---

For each entry below, report its viability value.
- Protocol summary: growth suppression of beta-catenin knockout HCT116, pilot screen, human colon tumor cells (AID 823);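 also: 0% = wells killed by 20 µM Hyamine and 100% = untreated DMSO cell wells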
- Experimental setup: CellTiter-Glo, 60 h, at 10 µM, stronger effect = lower value
Inconclusive results are not listed.
Express it in %; write the number only.

input: Read the entry CCOc1ccc(N(CC(=O)Nc2ccccc2C)S(=O)(=O)c2c(C)noc2C)cc1 and write its reported viability.
output: 15.9

input: Read the entry COC(=O)C(C)Sc1ccc2nnc(-c3cccc(F)c3)n2n1 (centres undefined) and write its reported viability.
output: 94.7

input: Read the entry Cc1cc(C)c(C)c(OCC(=O)NCCN(C)C)c1 and write its reported viability.
output: 91

input: Read the entry COC(=O)CC1Oc2ccccc2N(Cc2ccccc2)C1=O (centres undefined) and write its reported viability.
output: 92.2

input: Read the entry COc1ccccc1-c1cc(C(=O)N2CCCCC2)no1 and write its reported viability.
output: 103

input: Read the entry C=CCN1C(=Nc2ccccc2)SC/C1=C\C(=O)OC and write its reported viability.
output: 89

input: Read the entry CCc1ccccc1S(=O)(=O)Cc1ccc(C(=O)NC(C)C)o1 and write its reported viability.
output: 107

input: Read the entry COc1ccc(C(C)=O)cc1CSc1nnc(C)s1 and write its reported viability.
output: 96.5

input: Read the entry CCc1nnc(NC(=O)c2cccs2)s1 and write its reported viability.
output: 102

input: Read the entry CCc1cc2c(=O)n(N)c(CCC(=O)O)nc2s1 and write its reported viability.
output: 100

input: Read the entry CCOC1CCCCC1NS(=O)(=O)c1ccc(Cl)cc1 (centres undefined) and write its reported viability.
output: 99.3

input: Read the entry CCC(=O)N1CCc2cc(Br)cc(S(=O)(=O)N3CCN(C(=O)c4ccco4)CC3)c21 and write its reported viability.
output: 91.6

input: Read the entry COc1ccccc1-c1nnc(SCC(=O)N2CCOCC2)o1 and write its reported viability.
output: 93.8

input: Read the entry CCCCCn1c(CN2CC(C)OC(C)C2)nc2c1c(=O)n(C)c(=O)n2C (centres undefined) and write its reported viability.
output: 95.3

input: Read the entry COc1cccc(-c2nnc(SCC(=O)N3CC(C)CC(C)C3)o2)c1 (centres undefined) and write its reported viability.
output: 98

input: Read the entry Cc1ccc(Cn2c(Sc3nnc(C)s3)nc3c2c(=O)[nH]c(=O)n3C)cc1 and write its reported viability.
output: 85.8

input: Read the entry O=C(Nc1ccc(Br)cc1F)C1CCN(c2nnc(-n3cccc3)s2)CC1 and write its reported viability.
output: 97.8

input: Read the entry COc1ccc(-n2c(Cc3cccn3C)nnc2SCC(=O)N2CCC(C)CC2)cc1 and write its reported viability.
output: 94

input: Read the entry CCC(CC)C(=O)NCc1ccccc1OC and write its reported viability.
output: 99.1

input: Read the entry O=S(=O)(c1ccc(Oc2ccc(S(=O)(=O)N3CCOCC3)cc2)cc1)N1CCOCC1 and write its reported viability.
output: 82.7

input: Read the entry O=C(OCCCCN1C(=O)c2ccccc2C1=O)c1ccc(S(=O)(=O)N2CCCC2)cc1 and write its reported viability.
output: 101

input: Read the entry COc1ccc(S(=O)(=O)N2CCCC2C(=O)Nc2ccc(C(C)=O)cc2)cc1 (centres undefined) and write its reported viability.
output: 97.6

input: Read the entry Cc1ccc(-c2n[nH]c(=S)n2C)cc1 and write its reported viability.
output: 97.5

input: Read the entry Cc1cc(C)c(S(=O)(=O)N2CCN(CCO)CC2)c(C)c1 and write its reported viability.
output: 108

input: Read the entry COc1ccccc1NC(=O)Cn1c(=O)n2nc(C)nc2c2ccccc21 and write its reported viability.
output: 102

input: Read the entry Cc1ccc(C(c2sc3nc(C)nn3c2O)N2CCN(CCO)CC2)cc1 (centres undefined) and write its reported viability.
output: 97.8

input: Read the entry Cn1c(NC(=O)CCc2ccccc2)cc(=O)n(C)c1=O and write its reported viability.
output: 102

input: Read the entry O=C1CCC(C(=O)N(c2ccccc2)C2(C(=O)NC3CCCCC3)CCCCC2)N1 (centres undefined) and write its reported viability.
output: 94.3

input: Read the entry COc1cccc(C2c3c(oc4ccccc4c3=O)C(=O)N2CCCN2CCOCC2)c1 (centres undefined) and write its reported viability.
output: 95.1

input: Read the entry CCCCn1c(=O)[nH]c2ccccc21 and write its reported viability.
output: 106

input: Read the entry COc1ccccc1N(CC(=O)Nc1ccccc1C)S(C)(=O)=O and write its reported viability.
output: 94.7

input: Read the entry COc1ccc(CN2CCCC2C(=O)Nc2ccc(OC)c(OC)c2)cc1OC (centres undefined) and write its reported viability.
output: 102

input: Read the entry CCn1c(SCC(=O)Nc2ccccc2C(=O)OC)nc2c1c(=O)n(C)c(=O)n2C and write its reported viability.
output: 92

input: Read the entry COC(=O)C1=C(C)OC(N)=C(C#N)C1c1ccccc1F (centres undefined) and write its reported viability.
output: 94.9

---

For each entry below, report its growth inhibition value.
- Protocol summary: OD615 S. cerevisiae growth inhibition, permissive medium, pilot counter-assay, permissive growth control for S. cerevisiae lifespan shortening project (AID 705)
- Experimental setup: OD615, 24 h, at 10 µM, stronger effect = higher value
Express it in %; write the number only.

input: Read the entry COc1ccc(C)cc1NC(=O)CN1C(=O)c2ccccc2S1(=O)=O and write its reported growth inhibition.
output: 6.31

input: Read the entry CCOC(=O)Cn1c(=O)oc2cc(S(=O)(=O)N(C)Cc3ccco3)ccc21 and write its reported growth inhibition.
output: -13.2

input: Read the entry O=C1c2ccccc2C(=O)C1c1ccncc1 and write its reported growth inhibition.
output: 4.93

input: Read the entry O=C(CSc1ccccn1)c1ccc2c(c1)OCO2 and write its reported growth inhibition.
output: -3.07

input: Read the entry COc1cccc(NC=C2C(=O)OC(C)(C)OC2=O)c1 and write its reported growth inhibition.
output: -11

input: Read the entry CCOC(=O)c1ccccc1NC(=O)CC1SC(=NC)N(C)C1=O (stereo not given) and write its reported growth inhibition.
output: -10.3

input: Read the entry Cn1c(=O)c2c(nc(CN3CCOCC3)n2CCCO)n(C)c1=O and write its reported growth inhibition.
output: -5.86

input: Read the entry Cc1sc2ncnc(NCc3ccco3)c2c1C and write its reported growth inhibition.
output: 4.72

input: Read the entry CCOC(=O)c1sc(NC(=O)c2ccc3ncsc3c2)nc1C and write its reported growth inhibition.
output: -5.17

input: Read the entry CCC1Oc2ccc(C)cc2N(CC(=O)NCCc2ccc(OC)c(OC)c2)C1=O (stereo not given) and write its reported growth inhibition.
output: -6.91

input: Read the entry O=C(CN1CCOc2ccccc21)NC1CCCCCCC1 and write its reported growth inhibition.
output: -14.2

input: Read the entry Cc1ccccc1-c1nnc(SCC(=O)Nc2ccc3c(c2)OCCO3)n1N and write its reported growth inhibition.
output: -1.12

input: Read the entry CCn1cc(Cl)c(C(=O)Nc2nc3ccccc3n2CCN2CCCCC2)n1 and write its reported growth inhibition.
output: -5

input: Read the entry CCOC(=O)C1CCCN(C(=O)Cn2ncc3c(=O)oc4ccc(C)cc4c32)C1 (stereo not given) and write its reported growth inhibition.
output: -11.9

input: Read the entry COc1ccc2c(c1)CCc1c(C(=O)NCc3ccc(F)cc3)noc1-2 and write its reported growth inhibition.
output: -8.49
